FYI, the data here is from paper PMC4791841.

Reported pIC50 is given for each of the following compounds.
test_target: TbCet1 (Trypanosoma brucei brucei, UniProt Q582T2)
Sequence (Q582T2 1-253): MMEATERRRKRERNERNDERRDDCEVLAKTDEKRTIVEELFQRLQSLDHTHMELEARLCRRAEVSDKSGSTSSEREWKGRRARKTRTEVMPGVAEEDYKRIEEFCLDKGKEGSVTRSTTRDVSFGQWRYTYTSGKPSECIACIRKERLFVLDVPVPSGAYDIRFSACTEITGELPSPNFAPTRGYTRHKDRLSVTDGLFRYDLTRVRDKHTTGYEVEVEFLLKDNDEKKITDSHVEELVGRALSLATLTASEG
procedure_details: TLC assay for 32Pi release from [γ-32P]ATP, TbCet1
assay_conditions: read-out: IC50 TbCet1 by 32P assay; 2.2 nM TbCet1, 0.2 mM ATP, 2 mM Mn2+, 10 min 37°C
The meaning of pIC50 here: minus log10 of the concentration in molar units.

O=C(C=Cc1ccccc1)OC1C=C(C(=O)O)CC(OC(=O)C=Cc2ccccc2)C1OC(=O)C=Cc1ccccc1 (stereo not drawn) [Compound 6B, 3,4,5-tricinnamoylshikimic acid] = 5.82

Next:
What pIC50 appears in the records for this compound with TbCet1 (Trypanosoma brucei brucei, UniProt Q582T2)? COc1ccc(/C=C/C(=O)O[C@@H]2C[C@@](O)(C(=O)O)C[C@@H](O)[C@@H]2O)cc1O [Compound 1J, 5-p-feruoylquinic acid]
5.62
